- Test system: PR8
- Protocol Description: microbe, parasite or virus in culture
- Type: cell-based, influenza A virus
- Stated Conditions: Influenza A virus, PR8, MDCK
Reported Endpoint: EC50 (µM)

1. COc1ccc2c(c1)[C@]13CCCC[C@@H]1[C@H](C2)N(C)CC3 : 48.7
2. CCOC(=O)C1=C[C@@H](OC(CC)CC)[C@H](NC(C)=O)[C@@H](N)C1 : 0.005
3. CN1CCC(=C2c3ccccc3CC(=O)c3sccc32)CC1 : 5.9
4. O=C1CC[C@@]2(O)[C@H]3Cc4ccc(O)c5c4[C@@]2(CCN3CC2CC2)[C@H]1O5 [Naltrexone] : 4.7

----------
- Protocol Description: MTT assay (cytotoxicity)
- Stated Conditions: dog
// reported CC50 at 24 h per item
Reported Endpoint: CC50 at 24 h

1. COc1ccc2c(c1)[C@]13CCCC[C@@H]1[C@H](C2)N(C)CC3 [Dextromethorphan] : 3.55 mM
2. O=C1CC[C@@]2(O)[C@H]3Cc4ccc(O)c5c4[C@@]2(CCN3CC2CC2)[C@H]1O5 [Naltrexone] : 5.23 mM

----------
- Test system: pH1N1 (H1N1pdm09 A/Mexico/InDRE4487/2009)
- Protocol Description: microbe, parasite or virus in culture
- Assay type: cell-based, influenza A virus
- Stated Conditions: pH1N1
Reported Endpoint: EC50 (µM)

1) O=[N+]([O-])[O-].O=[N+]([O-])[O-].O=[N+]([O-])[O-].[Ga+3] [Gallium nitrate] : 55.3

----------
Reported values: antiviral activity in initial screen for H1N1 A/Puerto Rico/8/34 (PR8), one per item.
Reported Endpoint: antiviral activity in initial screen

1) CC(=O)N[C@@H]1[C@@H](O)[C@H](O)[C@@H](CO)O[C@@H]1O : no antiviral activity
2) CN(C)/N=N/c1[nH]cnc1C(N)=O : no antiviral activity
3) N[C@@H](CCC(=O)O)C(=O)O : no antiviral activity
4) Nc1ncnc2c1ncn2[C@@H]1O[C@H](COP(=O)(O)OP(=O)(O)OP(=O)(O)O)[C@@H](O)[C@H]1O [Adenosine triphosphate] : no antiviral activity
5) O=C1CCC(N2C(=O)c3ccccc3C2=O)C(=O)N1 (centres unmarked) [Thalidomide] : no antiviral activity

----------
- Protocol Description: in vitro
- Stated Conditions: dog
Reported Endpoint: CC50 at 24 h (µM)

1. CN1CCC(=C2c3ccccc3CC(=O)c3sccc32)CC1 : 291
2. CCOC(=O)C1=C[C@@H](OC(CC)CC)[C@H](NC(C)=O)[C@@H](N)C1 : 470

Data origin, for the record: paper PMC6563844
